Attribution: patent US20240270701A1

ASSAYED_TARGET: B1-AR (Homo sapiens)
Construct: expressed in transfected cells; host or cells: CHO-K1
TEST_NAME: cAMP Gs dynamic HTRF assay, cells expressing beta-adrenergic receptor (CHO-K1), B1-AR
Format: cell-based
TEST_SETTINGS: cAMP HTRF, read-out: pEC50 [B1-AR] (converted)
EC50 reference

Below are worked cases with known answers.
{"MOLECULE": "CC1(NC[C@H](O)c2cccc3[nH]ncc23)CCC1 [I-128]", "OBS_VALUE": "< 10 nM"}
{"MOLECULE": "Cn1c(=O)[nH]c2cccc([C@@H](O)CNC(C)(C)C)c21 [I-93]", "OBS_VALUE": "> 1000 nM"}
{"MOLECULE": "CC(C)[C@H](C)NC[C@H](O)c1cccc2[nH]ncc12 [I-40]", "OBS_VALUE": "10 to 100 nM"}
{"MOLECULE": "O[C@@H](CNC1CCC1)c1cccc2[nH]nc(Cl)c12 [I-97]", "OBS_VALUE": "10 to 100 nM"}
{"MOLECULE": "O[C@@H](CNCC1CC1)c1cccc2[nH]ncc12 [I-76]", "OBS_VALUE": "< 10 nM"}
{"MOLECULE": "Cc1nc(N)ncc1[C@@H](O)CNC(C)(C)C [I-144]", "OBS_VALUE": "> 1000 nM"}

Consider the record given below.
Value lookup for EC50; key = C[C@H](NC[C@H](O)c1cccc2c1C(F)(F)C(=O)N2)C(C)(C)C [I-2] > 1000 nM

====

Emax reference
ASSAYED_TARGET: B2-AR (Homo sapiens)
Construct: expressed in transfected cells; host or cells: CHO-K1
Sequence (P07550 whole entry, species assumed): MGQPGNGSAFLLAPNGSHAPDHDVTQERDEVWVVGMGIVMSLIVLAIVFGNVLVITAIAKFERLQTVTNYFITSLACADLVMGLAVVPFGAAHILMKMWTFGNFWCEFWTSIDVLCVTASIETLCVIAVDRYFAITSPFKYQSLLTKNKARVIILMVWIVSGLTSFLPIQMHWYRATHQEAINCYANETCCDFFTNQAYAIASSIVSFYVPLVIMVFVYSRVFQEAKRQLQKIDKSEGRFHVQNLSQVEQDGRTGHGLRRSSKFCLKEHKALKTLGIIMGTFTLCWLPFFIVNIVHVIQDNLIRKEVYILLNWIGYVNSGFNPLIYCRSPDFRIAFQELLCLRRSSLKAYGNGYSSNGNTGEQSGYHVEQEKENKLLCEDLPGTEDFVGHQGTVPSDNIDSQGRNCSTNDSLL
TEST_NAME: cAMP Gs dynamic HTRF assay, cells expressing beta-adrenergic receptor (CHO-K1), B2-AR
Format: cell-based
TEST_SETTINGS: CHO-K1 cells, relative to full agonist isoproterenol; read-out: Emax (% iso) (%) [B2-AR]

Below are worked cases with known answers.
{"STRUCTURE_SMILES_STRING": "Cc1nc(N)c(F)cc1[C@@H](CO)NC(C)(C)C", "OBS_VALUE": "< 50%"}
{"STRUCTURE_SMILES_STRING": "CC(C)C(C)(C)NC[C@H](O)c1cc(F)cc2[nH]ncc12", "OBS_VALUE": "> 90%"}
{"STRUCTURE_SMILES_STRING": "O[C@@H](CNC1CC1)c1cccc2[nH]nc(Cl)c12", "OBS_VALUE": "70 to 90%"}

Value lookup for Emax; key = O[C@@H](CNC1CCC1)c1ccc(F)c2[nH]ncc12 > 90%

====

ASSAYED_TARGET: B1-AR (Homo sapiens, UniProt P08588)
Construct: expressed in transfected cells; host or cells: CHO-K1
Sequence (P08588 whole entry, species assumed): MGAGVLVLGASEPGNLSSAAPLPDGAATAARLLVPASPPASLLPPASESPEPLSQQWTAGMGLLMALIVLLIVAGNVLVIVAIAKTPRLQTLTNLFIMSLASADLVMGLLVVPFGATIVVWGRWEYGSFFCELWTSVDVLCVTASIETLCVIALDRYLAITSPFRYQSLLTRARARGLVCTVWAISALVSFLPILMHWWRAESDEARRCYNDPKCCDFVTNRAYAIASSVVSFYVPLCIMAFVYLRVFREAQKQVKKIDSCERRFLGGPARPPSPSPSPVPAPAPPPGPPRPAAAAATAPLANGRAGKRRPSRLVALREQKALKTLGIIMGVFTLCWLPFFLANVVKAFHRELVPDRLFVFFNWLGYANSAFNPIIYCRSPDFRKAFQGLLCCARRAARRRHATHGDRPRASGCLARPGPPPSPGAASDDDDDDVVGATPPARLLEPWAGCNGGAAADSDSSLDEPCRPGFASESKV
TEST_NAME: cAMP Gs dynamic HTRF assay, cells expressing beta-adrenergic receptor (CHO-K1), B1-AR
Assay type: cell-based
TEST_SETTINGS: cAMP HTRF, read-out: pEC50 [B1-AR] (converted)
EC50 reference

{"STRUCTURE_SMILES_STRING": "C[C@H](NC[C@H](O)c1cc(C#N)cc2[nH]ncc12)C(C)(C)C", "EC50": "> 1000 nM"}
{"STRUCTURE_SMILES_STRING": "Cc1nc(N)c(Cl)cc1[C@@H](CO)NC1CC(F)(F)C1", "EC50": "> 1000 nM"}
{"STRUCTURE_SMILES_STRING": "CC(C)(C)NC[C@@H](O)c1cccc(Br)n1", "EC50": "100 to 1000 nM"}
{"STRUCTURE_SMILES_STRING": "CC(C)(C)NC[C@H](O)c1cc(F)c(Cl)c2[nH]ncc12", "EC50": "< 10 nM"}
{"STRUCTURE_SMILES_STRING": "O[C@@H](CNC1CCC1)c1cncc2[nH]ncc12", "EC50": "100 to 1000 nM"}
{"STRUCTURE_SMILES_STRING": "CC(C)[C@@H](C)NC[C@H](O)c1cccc2[nH]nc(F)c12", "EC50": "< 10 nM"}
{"STRUCTURE_SMILES_STRING": "N#Cc1cc([C@@H](O)CNC2CCC2)c2cn[nH]c2c1", "EC50": "10 to 100 nM"}
{"STRUCTURE_SMILES_STRING": "Cc1nc(N)c(Cl)cc1[C@H](CO)NC1CC(F)(F)C1", "EC50": "> 1000 nM"}

Identify the measured EC50 of Cc1ncccc1[C@@H](O)CNC1(C)CC1 for B1-AR (Homo sapiens, UniProt P08588). 100 to 1000 nM

Identify the measured EC50 of O[C@@H](CNC1CC1)c1cccc2[nH]nc(F)c12 for B1-AR (Homo sapiens, UniProt P08588). < 10 nM

Identify the measured EC50 of CC(C)(NC[C@H](O)c1cccc2[nH]nc(F)c12)C1CC1 for B1-AR (Homo sapiens, UniProt P08588). < 10 nM

Identify the measured EC50 of CC(C)NC[C@H](O)c1cncc2[nH]ncc12 for B1-AR (Homo sapiens, UniProt P08588). 100 to 1000 nM
